# System: Bacteria
# assay-procedure: Inhibition of 15N-Labeled beta lactamase TEM-1 (unknown origin) over expressed in Escherichia coli BL21(DE3) cells assessed as residual activity at 1 mM by CENTA relative to control
The entries below are paired with their reported Activity.
Give your result in % as a bare value.

Below, each entry is followed by its recorded Activity result.
| smiles-representation | test-target | Activity, % |
| --- | --- | --- |
| COc1ccc(CN2[C@@H](Cc3ccc(F)cc3)C(=O)N(CC(=O)O)S2(=O)=O)cc1 | Bacteria | 124 |
| COc1ccc(CN2[C@@H](Cc3ccc(Br)cc3)C(=O)N(CC(=O)O)S2(=O)=O)cc1 | Bacteria | 92 |
| O=C(O)CN1C(=O)[C@H](Cc2ccc(F)cc2)N(Cc2ccc(Br)cc2)S1(=O)=O | Bacteria | 34 |

Sample `O=C(O)CN1C(=O)[C@H](Cc2ccc(F)cc2)N(Cc2ccc([N+](=O)[O-])cc2)S1(=O)=O` — what was its Activity? 101

Sample `O=C(O)CN1C(=O)[C@H](Cc2ccc(Br)cc2)N(Cc2ccc(Br)cc2)S1(=O)=O` — what was its Activity? 10

Sample `O=C(O)CN1C(=O)[C@H](Cc2ccc(Br)cc2)N(Cc2ccc([N+](=O)[O-])cc2)S1(=O)=O` — what was its Activity? 100
